System: TEAD Reporter-MCF7 cell line
measurement.protocol: YAP/TEAD cellular activity assay: inhibition of TEAD-Luc activity in TEAD Reporter-MCF7 cell line
Type: cell-based, human
condition: TEAD Reporter-MCF7 cells, 24 hours incubation with compound, luciferase readout
experimental.readout: EC50

CNS(=O)(=O)c1ccc(Oc2ccc(C(F)(F)F)cc2)c(-c2cn3c(n2)C(C)CC3)c1 (single isomer, unassigned) [1-43] = 8.1 nM
CNS(=O)(=O)c1ccc(Oc2ccc(C(F)(F)F)cc2)c(-c2cn3c(n2)CC(C)C3)c1 (single isomer, unassigned) [1-41] = 26.1 nM
CNS(=O)(=O)c1ccc(Oc2ccc(C(F)(F)F)cc2)c(-c2cn3c(n2)C(C)CC3)c1 (single isomer, unassigned) [1-44] = 33.6 nM
